These data points were gathered from patent US20240270821A1.

biological target: human GLP1-R (Homo sapiens); assay: GLP1-R internalization assay in HEK293 cells; format: cell-based; settings: normalized to maximum concentration of GLP-1 (100%)
Sequence (P43220 24-463): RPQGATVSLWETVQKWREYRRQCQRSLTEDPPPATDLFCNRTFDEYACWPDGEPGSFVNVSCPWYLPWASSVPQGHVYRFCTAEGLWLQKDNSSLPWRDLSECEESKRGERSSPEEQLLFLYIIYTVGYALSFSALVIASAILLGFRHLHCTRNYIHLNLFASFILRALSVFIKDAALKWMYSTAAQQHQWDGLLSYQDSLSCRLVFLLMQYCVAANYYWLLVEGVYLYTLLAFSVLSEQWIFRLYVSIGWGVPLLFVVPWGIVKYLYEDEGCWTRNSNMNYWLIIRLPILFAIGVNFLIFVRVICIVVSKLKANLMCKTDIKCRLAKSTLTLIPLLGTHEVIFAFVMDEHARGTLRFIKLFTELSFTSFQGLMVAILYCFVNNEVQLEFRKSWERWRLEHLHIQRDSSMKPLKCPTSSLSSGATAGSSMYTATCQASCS
Starred links: 1 amine or outer side, 2 acyl side, 3 side chain; linkers in the order of their positions; H or OH if unused. Non-standard residues stand in square brackets, D forms with d. Groups on a side chain read outwards from the residue. No end group written: not given here. *: point of attachment. C20 diacid = O=C(O)CCCCCCCCCCCCCCCCCCC(=O)*; C18 diacid = O=C(O)CCCCCCCCCCCCCCCCC(=O)*; αMePhe(2-F) = C[C@](N)(Cc1ccccc1F)C(=O)O; γGlu = O=C(O)[C@H](CCC(=O)[*:2])N[*:1]; αMe4Pal = C[C@](N)(Cc1ccncc1)C(=O)O; αMeY = C[C@](N)(Cc1ccc(O)cc1)C(=O)O; 4Pal = N[C@@H](Cc1ccncc1)C(=O)O; αMeL = CC(C)C[C@](C)(N)C(=O)O; Orn = NCCC[C@H](N)C(=O)O; AEEA = NCCOCCOCC(=O)O; Aib = CC(C)(N)C(=O)O
// returns false (0) unless Internalization % TOP is strictly below 70%, in which case true (1)

The following substances have reported results that may help.
H-Y[Aib]QGTFTSDFS[Orn][αMeL]LDKK([AEEA-AEEA-γGlu-C18 diacid])AQ[Aib]AFIEYLLE[Aib]GPSSGEPPPSGS-NH2 [Example 166] : true (1)
Y[Aib]QGTFTSD[4Pal]SQ[αMeL]LD[Orn]K([γGlu-γGlu-C18 diacid])AQ[αMe4Pal]QFIE[αMeY]LIEGGPSSGEPPPSGSEE-NH2 [Example 1026] : false (0)
H-Y[Aib]QGTFTSD[4Pal]SQ[αMeL]LDKK([γGlu-γGlu-C18 diacid])AQ[αMe4Pal]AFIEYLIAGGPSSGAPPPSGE-NH2 [Example 883] : false (0)

Q: Does this substance meet the criterion Internalization % TOP < 70%? H-Y[Aib]QGTFTSDFSK[αMeL]LDKK([AEEA-γGlu-C20 diacid])AQ[Aib]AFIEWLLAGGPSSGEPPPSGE-NH2 [Example 21]
A: false (0)

Q: Does this substance meet the criterion Internalization % TOP < 70%? H-Y[Aib]QGT[αMePhe(2-F)]TSDYSKLLDKIAQK([AEEA-γGlu-C20 diacid])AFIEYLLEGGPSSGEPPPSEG-NH2 [Example 295]
A: false (0)

Q: Does this substance meet the criterion Internalization % TOP < 70%? H-Y[Aib]QGTFTSDFSI[αMeL]LDKK([AEEA-γGlu-C20 diacid])AQ[Aib]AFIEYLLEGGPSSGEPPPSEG-NH2 [Example 288]
A: false (0)

Q: Does this substance meet the criterion Internalization % TOP < 70%? H-Y[Aib]QGTFTSDFS[Orn][αMeL]LDKK([AEEA-γGlu-C18 diacid])AQ[Aib]AFIEYLLAGGPSSGAPPPSGT-NH2 [Example 87]
A: true (1)

Q: Does this substance meet the criterion Internalization % TOP < 70%? H-Y[Aib]QGTFTSD[4Pal]SR[αMeL]LDKK([AEEA-γGlu-C18 diacid])AQ[Aib]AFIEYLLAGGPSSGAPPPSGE-NH2 [Example 113]
A: true (1)

Q: Does this substance meet the criterion Internalization % TOP < 70%? H-Y[Aib]QGTFTSDFSK[αMeL]LDKK([AEEA-γGlu-C18 diacid])AQ[Aib]AFIEYLLE[Aib]GPSSGEPPPSEG-NH2 [Example 46]
A: true (1)

Q: Does this substance meet the criterion Internalization % TOP < 70%? H-Y[Aib]QGTFTSDFSK[αMeL]LDKK([AEEA-AEEA-γGlu-C20 diacid])AQ[Aib]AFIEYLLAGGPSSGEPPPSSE-NH2 [Example 5]
A: false (0)
